Data provenance is ChEMBL document CHEMBL3046012.

System: A549
method summary: Cytotoxicity against Homo sapiens (human) A549 cells after 72 hr by MTT assay
Assay type: functional, cell-based
study conditions: A549, 72 h
Decision: IC50 beneath 0.3 µg/mL gives MET; IC50 meeting or exceeding 0.3 µg/mL gives NOT MET.

A selection of reference data follows.
• CCOc1ccc(NC2=C(Cl)C(=O)c3ncncc3C2=O)cc1 = NOT MET
• O=C1C(Nc2ccc(Cl)cc2)=CC(=O)c2ncncc21 = MET
• N#Cc1ccc(NC2=C(Cl)C(=O)c3ncncc3C2=O)cc1 = NOT MET
• O=C1C(Nc2ccc(F)cc2)=CC(=O)c2ncncc21 = NOT MET
• O=C1C(Cl)=C(Nc2ccc(Cl)cc2)C(=O)c2cnccc21 = NOT MET
• O=C1C(Cl)=C(Nc2ccc(F)cc2)C(=O)c2cnccc21 = NOT MET

is_below(IC50, 0.3 µg/mL) for O=C1C(Nc2ccc([N+](=O)[O-])cc2)=C(Cl)C(=O)c2ncncc21 ?
NOT MET

Now try O=C1C(Nc2ccc(Br)cc2)=CC(=O)c2ncncc21 .
MET

Please give the result for O=C1C(Nc2ccc(OC(F)(F)F)cc2)=C(Cl)C(=O)c2ncncc21 too.
NOT MET

Could you do the same for O=C1C(Nc2ccc(F)cc2)=C(Cl)C(=O)c2ncncc21 , please?
NOT MET

What about O=C1C(Nc2ccc(Cl)cc2)=C(Cl)C(=O)c2ncccc21 ?
NOT MET

Would you kindly repeat that for O=C1C(Nc2ccc(Br)cc2)=C(Cl)C(=O)c2ncccc21 ?
NOT MET

Consider next the compound O=C1C(Cl)=C(Nc2ccc(I)cc2)C(=O)c2cnccc21 in the same way.
MET

Input O=C1C(Nc2ccccc2)=C(Cl)C(=O)c2ncncc21
NOT MET

Moving on to O=C1C(Nc2ccccc2)=CC(=O)c2ncncc21
MET
